# method_summary: qHTS assay for small molecule agonists of the p53 signaling pathway - cell viability (AID 651633); note: nearly all actives have a fitted effect of over 30% in size
# test_context: p53RE-bla HCT-116 viability, ATP luminescence, 16 h; series mostly up to 83.3 µM
Results filed as inconclusive are left out. Activity calls are given as the source filed them. Calls come from the whole dose curve. Non-standard residues stand in square brackets, D forms with d. Residues, ends and D or L forms follow the SMILES beside them. Orn = NCCC[C@H](N)C(=O)O
Classes used: active, inactive

[[record]]
molecule = "C[C@H]1O[C@@H](O[C@H]2CC[C@@]3(C)[C@H](CC[C@@H]4[C@@H]3C[C@@H](O)[C@]3(C)[C@@H](C5=CC(=O)OC5)CC[C@]43O)C2)C[C@H](O)[C@@H]1O[C@H]1C[C@H](O)[C@H](O[C@H]2C[C@H](O)[C@H](O[C@@H]3O[C@H](CO)[C@@H](O)[C@H](O)[C@H]3O)[C@@H](C)O2)[C@@H](C)O1"
assigned_category = "active"

[[record]]
molecule = "CN1C(C(=O)Nc2ccccn2)C(=O)c2sc(Cl)cc2S1(=O)=O (stereo unspecified)"
assigned_category = "inactive"

[[record]]
molecule = "C=CCN1C(=O)C(CC(C)C)NC1=S (stereo unspecified)"
assigned_category = "inactive"

[[record]]
molecule = "Cc1cc(C(=O)NCCc2ccc(S(=O)(=O)NC(=O)NN3CCCCCC3)cc2)no1"
assigned_category = "inactive"

[[record]]
molecule = "CC(C)C[C@@H]1NC(=O)[C@H](CCCN)NC(=O)[C@H](C(C)C)NC(=O)[C@@H]2CCCN2C(=O)[C@@H](Cc2ccccc2)NC(=O)[C@H](CC(C)C)NC(=O)[C@H](CCCN)NC(=O)[C@H](C(C)C)NC(=O)[C@@H]2CCCN2C(=O)[C@@H](Cc2ccccc2)NC1=O (cyclo(V[Orn]L[dF]PV[Orn]L[dF]P))"
assigned_category = "active"

[[record]]
molecule = "N#Cc1nc(Cl)c(Cl)c(Cl)c1Cl"
assigned_category = "active"


====

# method_summary: qHTS assay to identify small molecule agonists of the AP-1 signaling pathway - cell viability counter screen (AID 1159525); note: nearly all actives have a fitted effect of over 55% in size
# test_context: ME-180 (cervical carcinoma) AP-1-bla cells viability, ATP luminescence, 5 h; series mostly up to 76.8 µM
Records with an inconclusive call do not appear. Active and inactive are the calls of the source. Calls come from the whole dose curve.
Possible outcomes: active, inactive

[[record]]
compound = "S=C1NC=NC2N=CNC12 (configuration not stated)"
assigned_category = "inactive"

[[record]]
compound = "Cc1ccc(N=Nc2c(O)ccc3ccccc23)c(C)c1"
assigned_category = "inactive"

[[record]]
compound = "CN(C[C@@H](CC[N+]12CCC(C3CCCCC3)(CC1)CC2)c1ccc(Cl)c(Cl)c1)C(=O)c1cc(C(F)(F)F)cc(C(F)(F)F)c1"
assigned_category = "active"

[[record]]
compound = "CC(C)=NNC(N)=S"
assigned_category = "inactive"

[[record]]
compound = "CCCCCCCCCCCC(=O)Cl"
assigned_category = "inactive"

[[record]]
compound = "C=CC(C)(C)O"
assigned_category = "inactive"

[[record]]
compound = "C=C(C)CCO"
assigned_category = "inactive"


====

# test_target: Glucocorticoid receptor (Homo sapiens)
# method_summary: qHTS assay to identify small molecule agonists of the glucocorticoid receptor (GR) signaling pathway (AID 720691); note: % is set by controls: 0 for no effect and ±100 for the full control effect
# test_context: GR-bla HeLa, beta-lactamase reporter ratio, 18 h
Results filed as inconclusive are left out. Activity calls are given as the source filed them. The call rests on the fitted dose curve; in most records, active means well fitted activation curve with a large enough effect in the signal ratio in the repeat runs (not every such curve was filed as active); inconclusive means weak or mixed curves, or effect the other way; inactive means no such curve, though single readings can be large or run the other way; the % refers to the signal ratio.
property_measured: outcome

[[record]]
molecule = "O=C(O)c1cc2cc(Cc3cccnc3)ccc2o1"
measured_value = "inactive"

[[record]]
molecule = "COc1c(Br)cc(Br)c(C)c1Br"
measured_value = "inactive"

[[record]]
molecule = "O=C1OC(=O)c2cc(-c3ccc4c(c3)C(=O)OC4=O)ccc21"
measured_value = "inactive"

[[record]]
molecule = "CC(C)COC(=O)OCN1C(=O)CN(CCN2CC(=O)N(COC(=O)OCC(C)C)C(=O)C2)CC1=O"
measured_value = "inactive"

[[record]]
molecule = "CCCCC/C=C\\C=C\\C(=O)OCC"
measured_value = "inactive"

[[record]]
molecule = "CC(C)[N+]1(C)[C@@H]2CC[C@H]1CC(OC(=O)C(CO)c1ccccc1)C2 (stereo partly specified)"
measured_value = "inactive"


====

# method_summary: A CellTox Green Cytotoxicity Assay to monitor cytotoxicity in HEK293 cells - 24 hour (AID 1224875); note: nearly all actives have a fitted effect of over 45% in size
# test_context: CellTox Green fluorescence; series mostly up to 76.8 µM
# Description: National Center for Advancing Translational Sciences [NCATS] NIH Chemical Genomics Center [NCGC] U.S. Environmental Protection Agency [EPA] National Institutes of Environmental Health Sciences [NIEHS] National Toxicology Program [NTP] Cell-based models are critical for drug discovery. […] Viable cells produce no appreciable increases in fluorescence. Therefore, the fluorescence signal produced by the binding interaction with dead cell DNA is proportional to cytotoxicity. […]
Inconclusive results are not listed. The source made the active and inactive calls. The call rests on the fitted dose curve; in most records, active means well fitted activation curve with a large enough effect in the repeat runs; inconclusive means weak or mixed curves; inactive means flat fitted curve, though single readings scatter.
Outcome codes: class 1 (active), class 0 (inactive)

[[record]]
compound = "C1CCSC1"
assigned_category = "class 0"

[[record]]
compound = "COc1ccc(OC)c(N=Nc2c(O)ccc3ccccc23)c1"
assigned_category = "class 0"

[[record]]
compound = "C=C(C)CCO"
assigned_category = "class 0"

[[record]]
compound = "O=C1OC(=O)c2cc(-c3ccc4c(c3)C(=O)OC4=O)ccc21"
assigned_category = "class 0"

[[record]]
compound = "CC(=O)Nc1ccc(N=Nc2cc(C)ccc2O)cc1"
assigned_category = "class 0"

[[record]]
compound = "NCc1cccc(C2CCN(C(=O)c3ccc(C#Cc4ccccc4F)o3)CC2)c1"
assigned_category = "class 1"

[[record]]
compound = "CC(Cc1ccc(O)c(O)c1)C(C)Cc1ccc(O)c(O)c1 (stereo not given)"
assigned_category = "class 0"

[[record]]
compound = "Clc1cccc(Cl)n1"
assigned_category = "class 0"

[[record]]
compound = "CCc1cccc(C)c1N(C(=O)C(=O)O)C(C)COC (stereo not given)"
assigned_category = "class 0"

[[record]]
compound = "c1ccc(C[P+](c2ccccc2)(c2ccccc2)c2ccccc2)cc1"
assigned_category = "class 0"

[[record]]
compound = "O=C(N[C@H](CO)[C@H](O)c1ccc([N+](=O)[O-])cc1)C(Cl)Cl"
assigned_category = "class 0"

[[record]]
compound = "CCC(=O)OC/C=C(\\C)CCC=C(C)C"
assigned_category = "class 0"

[[record]]
compound = "CC(=O)[C@]1(O)Cc2c(O)c3c(c(O)c2[C@@H](O[C@H]2C[C@H](N)[C@H](O)[C@H](C)O2)C1)C(=O)c1ccccc1C3=O"
assigned_category = "class 0"

[[record]]
compound = "Cc1cc(Br)ccc1NC(=O)CCl"
assigned_category = "class 0"

[[record]]
compound = "C/C(=C\\c1ccc(C(=O)O)cc1)c1ccc2c(c1)C(C)(C)CCC2(C)C"
assigned_category = "class 0"

[[record]]
compound = "COc1cc([C@@H]2c3cc4c(cc3[C@@H](O[C@@H]3O[C@@H]5CO[C@@H](C)O[C@H]5[C@H](O)[C@H]3O)[C@H]3COC(=O)[C@H]23)OCO4)cc(OC)c1O"
assigned_category = "class 0"

[[record]]
compound = "CCCCCc1ccc(O)cc1"
assigned_category = "class 1"

[[record]]
compound = "CCOc1nc(F)cc2nc(S(=O)(=O)Nc3c(Cl)cccc3C(=O)OC)nn12"
assigned_category = "class 0"

[[record]]
compound = "CCCCCCCCCCCCCCCCC(C(=O)O)C(O)(CC(=O)O)C(=O)O (stereo not given)"
assigned_category = "class 0"

[[record]]
compound = "CN(C)CCOc1ccc(/C(=C(/CCCl)c2ccccc2)c2ccccc2)cc1"
assigned_category = "class 1"

[[record]]
compound = "O=C1OC(O)C(C(Cl)Cl)=C1Cl (stereo not given)"
assigned_category = "class 0"

[[record]]
compound = "Cn1ccnc1"
assigned_category = "class 0"

[[record]]
compound = "O=[N+]([O-])c1ccc(O)c2ncccc12"
assigned_category = "class 0"

[[record]]
compound = "CC/C=C(\\C)C=O"
assigned_category = "class 0"

[[record]]
compound = "O=C1CCCCCCCCCCCCCC1"
assigned_category = "class 1"


====

# test_target: Thyrotropin receptor (Homo sapiens)
# method_summary: qHTS assay to identify small molecule antagonists of the thyroid stimulating hormone receptor (TSHR) signaling pathway (AID 1259385); note: nearly all actives have a fitted effect of over 20% in size
# test_context: TSHR-HEK293 cAMP HTRF, TSH-stimulated antagonist mode; series mostly up to 92.4 µM
Results filed as inconclusive are left out. The source made the active and inactive calls. Calls follow the shape of the full dose curve.
Outcome codes: active, inactive

[[record]]
chemical_structure = "CO[Si](OC)(c1ccccc1)c1ccccc1"
assigned_category = "inactive"

[[record]]
chemical_structure = "O=C1OC2(c3ccccc31)c1ccc(O)c(Br)c1Oc1c2ccc(O)c1Br"
assigned_category = "active"

[[record]]
chemical_structure = "C/C(=C\\c1ccc(C(=O)O)cc1)c1ccc2c(c1)C(C)(C)CCC2(C)C"
assigned_category = "active"

[[record]]
chemical_structure = "Nc1cc([N+](=O)[O-])ccc1Cl"
assigned_category = "inactive"

[[record]]
chemical_structure = "O=C(Nc1ccccc1)c1cc(Cl)ccc1O"
assigned_category = "inactive"

[[record]]
chemical_structure = "CCN(CCC#N)c1ccc(N=Nc2ccc([N+](=O)[O-])cc2)cc1"
assigned_category = "inactive"


All figures here come from PubChem BioAssay (Tox21).
